Collected literature values of pKi measured for Cathepsin S (Homo sapiens, UniProt P25774).
pKi: −log10 of the molar value.
Result Type: pKi

CC(C)(C)OC(=O)N[C@@H](Cc1ccc2ccccc2c1)C(=O)NCC#N = 7.08
C[C@@H](CN1c2ccc(F)cc2CC1(C)C)NC(=O)[C@H](CC1CCCCC1)NC(=O)N1CCOCC1 = 6.95
CCCC[C@H](NC(=O)[C@@H](NC(=O)c1cccc(C(N)=O)c1)C(C)CC)C(=O)CO (stereo partly drawn) = 6.96
